system: UO-31 renal; assay: NCI tumour cell line growth inhibition, 48 h
measurementLabel: TGI

Worked cases, answers included:
molecule	TGI
Nc1ncnc2c1nnn2C1C=CC(CP(=O)(O)O)C1 (stereo not given)	> 100 µM
COC(=O)/C=C(\C)CC/C=C(\C)CCC1OC1(C)C (stereo not given)	20.8 µM
CCn1c2c(c3ccccc3c1=O)C(=O)c1ccccc1-2	> 100 µM
O=C(COc1ccc(OCC(=O)N/N=C/c2ccc(-c3ccc(Cl)cc3Cl)o2)c(Cl)c1)N/N=C/c1ccc(-c2ccc(Cl)cc2Cl)o1	> 100 µM
C[n+]1cc2cc(O)c(O)cc2c2ccc3cc(O)c(O)cc3c21	5.61 µM

Please provide the recorded TGI for NCCN1CCCCCc2ccccc21 , tested on UO-31 renal.
> 10 µM

Also O=C1NN(C2=NNC3(C(=O)N2)c2ccccc2-c2ccccc23)C(c2ccccc2)=N/C1=C/c1ccc(Cl)cc1 ?
> 150 µg/mL

Data origin, for the record: PubChem BioAssay (NCI)
